meta.source: ChEMBL document CHEMBL4602715

- assaySummary: Cmax in BALB/c mouse at 5 mg/kg, iv measured upto 24 hrs by LC-MS/MS analysis
- Type: ADME, organism-based
- Set-up: dose 5 mg/kg, route intravenous
- recordedConditions: in vivo
observable: Cmax (nM)
Your answer should be a plain number; it is taken to be in nM.

Quick check: Cmax of COc1ccc(-c2cnn3c(N)c(-c4ccccc4)c(NC4CC(C)(C)N(C)C(C)(C)C4)nc23)cc1OC ? 1100

Could you share which Cmax value was measured for CN1C(C)(C)CC(Nc2nc3c(-c4ccc(C(=O)N5C[C@@H]6C[C@H]5CO6)cc4)cnn3c(N)c2-c2ccccc2)CC1(C)C ? 1600

* * *

- assaySummary: Half life in BALB/c mouse at 10 mg/kg, po measured upto 24 hrs by LC-MS/MS analysis
- Type: ADME, organism-based
- recordedConditions: in vivo
observable: half-life (h)
Provide the reading as a plain figure in h.

smi | half-life / h
COC(=O)N1CCN(C(=O)c2ccc(-c3cnn4c(N)c(-c5ccccc5)c(NC5CC(C)(C)N(C)C(C)(C)C5)nc34)cc2)CC1 | 3.7

Here is another molecule to look at.
Query: half-life; subject: CN1C(C)(C)CC(Nc2nc3c(-c4ccc(C(=O)N5CCN(S(C)(=O)=O)CC5)cc4)cnn3c(N)c2-c2ccccc2)CC1(C)C 2.2

* * *

- assaySummary: Half life in BALB/c mouse at 20 mg/kg, po measured upto 24 hrs by LC-MS/MS analysis
- Type: ADME, organism-based
- recordedConditions: in vivo
Catalogue of half-life values
Remember to follow the number with its unit.

smi | measValue
CN1C(C)(C)CC(Nc2nc3c(-c4ccc(C(=O)N5C[C@@H]6C[C@H]5CO6)cc4)cnn3c(N)c2-c2ccccc2)CC1(C)C | 150 min

Given the compound COc1ccc(-c2cnn3c(N)c(-c4ccccc4)c(NC4CC(C)(C)N(C)C(C)(C)C4)nc23)cc1OC.Cl , what is its reported half-life? 660 min

* * *

- assaySummary: Oral bioavailability in BALB/c mouse at 10 mg/kg measured upto 24 hrs by LC-MS/MS analysis
- Format: ADME, organism-based
- recordedConditions: in vivo
observable: bioavailability (%)
State just the number; it will be interpreted in %.

smi | bioavailability (%)
COC(=O)N1CCN(C(=O)c2ccc(-c3cnn4c(N)c(-c5ccccc5)c(NC5CC(C)(C)N(C)C(C)(C)C5)nc34)cc2)CC1 | 62

Could you now look at the following compound, please?
Record request: bioavailability value, item CN1C(C)(C)CC(Nc2nc3c(-c4ccc(C(=O)N5CCN(S(C)(=O)=O)CC5)cc4)cnn3c(N)c2-c2ccccc2)CC1(C)C 14

* * *

- assaySummary: Volume of distribution at steady state in BALB/c mouse at 5 mg/kg, iv measured upto 24 hrs by LC-MS/MS analysis
- Type: ADME, organism-based
- recordedConditions: in vivo, read-out: Vdss
observable: Vd (L/kg)
A number alone suffices; assume L/kg.

smi | observable | unitDescriptor | measValue
COc1ccc(-c2cnn3c(N)c(-c4ccccc4)c(NC4CC(C)(C)N(C)C(C)(C)C4)nc23)cc1OC | Vd | L/kg | 13

# evaluate next
Can you look up the measured Vd of CN1C(C)(C)CC(Nc2nc3c(-c4ccc(C(=O)N5C[C@@H]6C[C@H]5CO6)cc4)cnn3c(N)c2-c2ccccc2)CC1(C)C for me? 7.8
